Tested on: 313798-341-R-J2-PDC spheroids, viability
Test: Anticancer human tumor 313798-341-R-J2-PDC patient-derived cervical squamous cell carcinoma cell line growth inhibition [PI3K]
Settings: second compound 0.01 µM; first compound 0.00316 µM; hits give low values; spheroids with HUVEC and MSC
Text: Combinatorial screen of targeted agents with the PI3K inhibitors inavolisib, alpelisib, duvelisib, and copanlisib in multi-cell type tumor spheroids A high-throughput screen of multi-cell type tumor spheroids was designed to identify active combinations of targeted small molecules and PI3K pathway inhibitors. […] Compounds. […] If the clinical Cmax for an agent had not been determined, the highest concentration tested was 10 microM. […]
Below: a set of entries, each annotated with reported viability, T/C.
Give the number; % is assumed, so skip it.

{"compound": "Cn1ncnc1[C@H]1c2n[nH]c(=O)c3cc(F)cc(c23)N[C@@H]1c1ccc(F)cc1 + CC(Nc1ccc2c(c1)OCCn1cc(N3C(=O)OCC3C(F)F)nc1-2)C(N)=O", "viability, T/C [%]": 88.5}
{"compound": "CCN1CCN(Cc2ccc(Nc3ncc(F)c(-c4cc(F)c5nc(C)n(C(C)C)c5c4)n3)nc2)CC1 + COc1c(OCCCN2CCOCC2)ccc2c3n(c(=NC(=O)c4cnc(N)nc4)nc12)CCN3", "viability, T/C [%]": 98.6}

Let's switch to this compound now.
# get_value(readout= viability, T/C, system= 313798-341-R-J2-PDC spheroids, viability) for CC(C)n1nc(-c2ccc3oc(N)nc3c2)c2c(N)ncnc21 + COc1c(OCCCN2CCOCC2)ccc2c3n(c(=NC(=O)c4cnc(N)nc4)nc12)CCN3
83.3

###

Test system: 313798-341-R-J2-PDC spheroids, viability
Test: Anticancer human tumor 313798-341-R-J2-PDC cell line growth inhibition [PI3K];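 note: spheroids exposed to compounds for seven days; 100% = DMSO vehicle control viability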
Conditions: compound 0.01 µM; hits give low values; spheroids with HUVEC and MSC
Below: a set of entries, each annotated with reported viability, T/C.

These solved cases illustrate the format of a correct answer.
{"compound": "CC(C)n1nc(-c2ccc3oc(N)nc3c2)c2c(N)ncnc21", "viability, T/C": "86.7% [middle of 4 runs]"}
{"compound": "COc1c(OCCCN2CCOCC2)ccc2c3n(c(=NC(=O)c4cnc(N)nc4)nc12)CCN3", "viability, T/C": "102% [middle of 7 runs]"}
{"compound": "CC(Nc1ccc2c(c1)OCCn1cc(N3C(=O)OCC3C(F)F)nc1-2)C(N)=O (centres undefined)", "viability, T/C": "103% [middle of 8 runs]"}

Let's switch to this compound now.
What value of viability, T/C has been recorded for this entry: CCN1CCN(Cc2ccc(Nc3ncc(F)c(-c4cc(F)c5nc(C)n(C(C)C)c5c4)n3)nc2)CC1
99.5% [middle of 4 runs]

###

Tested on: 313798-341-R-J2-PDC spheroids, viability
Assay: Anticancer human tumor 313798-341-R-J2-PDC cell line growth inhibition [PI3K];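 note: spheroids exposed to compounds for seven days; 100% = DMSO vehicle control viability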
Conditions: second compound 0.00316 µM; first compound 0.00316 µM; hits give low values; spheroids with HUVEC and MSC
Below: a set of entries, each annotated with reported viability, T/C.
Give the number; % is assumed, so skip it.

These solved cases illustrate the format of a correct answer.
{"compound": "CCN1CCN(Cc2ccc(Nc3ncc(F)c(-c4cc(F)c5nc(C)n(C(C)C)c5c4)n3)nc2)CC1 + COc1c(OCCCN2CCOCC2)ccc2c3n(c(=NC(=O)c4cnc(N)nc4)nc12)CCN3", "subject.of.test": "313798-341-R-J2-PDC spheroids, viability", "viability, T/C, %": 99.7}
{"compound": "CC(=O)c1c(C)c2cnc(Nc3ccc(N4CCNCC4)cn3)nc2n(C2CCCC2)c1=O + CC(Nc1ccc2c(c1)OCCn1cc(N3C(=O)OCC3C(F)F)nc1-2)C(N)=O", "subject.of.test": "313798-341-R-J2-PDC spheroids, viability", "viability, T/C, %": 107}
{"compound": "Cn1ncnc1[C@H]1c2n[nH]c(=O)c3cc(F)cc(c23)N[C@@H]1c1ccc(F)cc1 + CC(Nc1ccc2c(c1)OCCn1cc(N3C(=O)OCC3C(F)F)nc1-2)C(N)=O", "subject.of.test": "313798-341-R-J2-PDC spheroids, viability", "viability, T/C, %": 99.1}
{"compound": "CC(C)n1nc(-c2ccc3oc(N)nc3c2)c2c(N)ncnc21 + COc1c(OCCCN2CCOCC2)ccc2c3n(c(=NC(=O)c4cnc(N)nc4)nc12)CCN3", "subject.of.test": "313798-341-R-J2-PDC spheroids, viability", "viability, T/C, %": 97.3}
{"compound": "Cn1ncnc1[C@H]1c2n[nH]c(=O)c3cc(F)cc(c23)N[C@@H]1c1ccc(F)cc1 + COc1c(OCCCN2CCOCC2)ccc2c3n(c(=NC(=O)c4cnc(N)nc4)nc12)CCN3", "subject.of.test": "313798-341-R-J2-PDC spheroids, viability", "viability, T/C, %": 107}
{"compound": "CC(C)n1nc(-c2ccc3oc(N)nc3c2)c2c(N)ncnc21 + CC(Nc1ccc2c(c1)OCCn1cc(N3C(=O)OCC3C(F)F)nc1-2)C(N)=O", "subject.of.test": "313798-341-R-J2-PDC spheroids, viability", "viability, T/C, %": 119}

Let's switch to this compound now.
What value of viability, T/C has been recorded for this entry: CCN1CCN(Cc2ccc(Nc3ncc(F)c(-c4cc(F)c5nc(C)n(C(C)C)c5c4)n3)nc2)CC1 + CC(Nc1ccc2c(c1)OCCn1cc(N3C(=O)OCC3C(F)F)nc1-2)C(N)=O
102

Measured values drawn from PubChem BioAssay AID1963982 for this set.
